tested on: L929; experiment: Virus rating against vesicular stomatitis virus (L-929 cell line); format: functional, Mus musculus
measurement.type: VR

molecule	measurement.type	obs.value
C[C@H]1C[C@@H](n2cnc3c(N)nccc32)C(O)[C@H]1O (some centres undefined)	VR	1
Nc1nccc2c1ncn2[C@@H]1C[C@H](CBr)[C@H](O)C1O (some centres undefined)	VR	0.3
OC[C@H]1C[C@@H](n2cnc3cnccc32)C(O)[C@H]1O (some centres undefined)	VR	0.7
Nc1nccc2c1ncn2[C@@H]1C[C@H](CCl)[C@H](O)C1O (some centres undefined)	VR	0.4

---

system: Vero; assay: Inhibitory concentration (reduction in cytopathic effect) against vaccinia virus (vero cell line); assay type: functional, cell-based; settings: Chlorocebus sabaeus
measurement.type: IC50 (µg/mL)

molecule	target	obs.value
NC[C@H]1C[C@@H](n2cnc3c(N)nccc32)C(O)[C@H]1O (some centres undefined)	Vero	18
Nc1nccc2c1ncn2[C@@H]1C[C@H](CBr)[C@H](O)C1O (some centres undefined)	Vero	87
C[C@H]1C[C@@H](n2cnc3c(N)nccc32)C(O)[C@H]1O (some centres undefined)	Vero	3.1
NC(=O)[C@H]1C[C@@H](n2cnc3c(N)nccc32)C(O)[C@H]1O (some centres undefined)	Vero	32
